- Tested on: biotinyl-Val-oxazolone
- experiment: self-aminoacylation, catalytic enhancement (BVO) (fold over background); higher = more active; k-Seq, kA / k0A0; sequences stand for … in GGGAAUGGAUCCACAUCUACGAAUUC…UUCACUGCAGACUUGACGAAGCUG
Fewer inactive variants are shown than the library holds.
Recorded self-aminoacylation by entry

[
  {
    "polymer.sequence": "CUACUACAAACAAUCGGUCUC [Fam1A.1 aminoacylation ribozyme variant]",
    "self-aminoacylation": 0.59
  },
  {
    "polymer.sequence": "AUUCACCUAGGUGAUCGGCUG [Fam2.2 aminoacylation ribozyme variant]",
    "self-aminoacylation": 1.66
  },
  {
    "polymer.sequence": "AUUACCUUGGUCAUCGAGAGA [Fam2.1 aminoacylation ribozyme variant]",
    "self-aminoacylation": 1.19
  },
  {
    "polymer.sequence": "CCACACUUCAAGCAGUCGGUG [Fam1B.1 aminoacylation ribozyme variant]",
    "self-aminoacylation": 2.29
  },
  {
    "polymer.sequence": "AUUAACCUACGUCAUCGGGUG [Fam2.2 aminoacylation ribozyme variant]",
    "self-aminoacylation": 3.84
  },
  {
    "polymer.sequence": "AUUUAUCUAGGUCAUCGGGUG [Fam2.2 aminoacylation ribozyme variant]",
    "self-aminoacylation": 2.45
  },
  {
    "polymer.sequence": "AUUACCCUGGCCAUCGAGUGA [Fam2.1 aminoacylation ribozyme variant]",
    "self-aminoacylation": 2.24
  },
  {
    "polymer.sequence": "AUCCACCUAGGUGAUCGGGUG [Fam2.2 aminoacylation ribozyme variant]",
    "self-aminoacylation": 4.45
  },
  {
    "polymer.sequence": "CUACCUCAAACAAUCGGUUUG [Fam1A.1 aminoacylation ribozyme variant]",
    "self-aminoacylation": 1.16
  },
  {
    "polymer.sequence": "AAGUUUCCUAUUAGUCGCAAG [Fam3.1 aminoacylation ribozyme variant]",
    "self-aminoacylation": 1.32
  },
  {
    "polymer.sequence": "UCACACUUCAAGCAAUCGCUC [Fam1B.1 aminoacylation ribozyme variant]",
    "self-aminoacylation": 1.32
  },
  {
    "polymer.sequence": "AAGAUUGCUAAUAGUCGCAAG [Fam3.1 aminoacylation ribozyme variant]",
    "self-aminoacylation": 1.31
  },
  {
    "polymer.sequence": "CUGCUUCAAACAAUCGGUAUG [Fam1A.1 aminoacylation ribozyme variant]",
    "self-aminoacylation": 1.33
  },
  {
    "polymer.sequence": "CCACACUACAAGCGAUCGGUC [Fam1B.1 aminoacylation ribozyme variant]",
    "self-aminoacylation": 1.29
  },
  {
    "polymer.sequence": "AUUCACCUCGGUCAUCGGGCG [Fam2.2 aminoacylation ribozyme variant]",
    "self-aminoacylation": 3.43
  },
  {
    "polymer.sequence": "AUUCACCUAGGUACUCGGGUG [Fam2.2 aminoacylation ribozyme variant]",
    "self-aminoacylation": 2.11
  }
]

###

- Tested on: biotinyl-Trp-oxazolone
- experiment: self-aminoacylation, catalytic enhancement (BWO) (fold over background); higher = more active; k-Seq, kA / k0A0; sequences stand for … in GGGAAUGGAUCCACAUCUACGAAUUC…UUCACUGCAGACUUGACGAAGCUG
This sample holds only a part of the variants without activity.
Recorded self-aminoacylation by entry
reported.endpoint: self-aminoacylation

[
  {
    "polymer.sequence": "CUUACCCUGGUCCUCGAGUGA [Fam2.1 aminoacylation ribozyme variant]",
    "reported.endpoint": "self-aminoacylation",
    "value.measured": 5.89
  },
  {
    "polymer.sequence": "CUACUUCAAAAAAUCCGUCUG [Fam1A.1 aminoacylation ribozyme variant]",
    "reported.endpoint": "self-aminoacylation",
    "value.measured": 0.897
  },
  {
    "polymer.sequence": "CUCCUACAAACAAUCGGUCUG [Fam1A.1 aminoacylation ribozyme variant]",
    "reported.endpoint": "self-aminoacylation",
    "value.measured": 0.924
  },
  {
    "polymer.sequence": "CCAAACUUCAAGCAAUCGGUG [Fam1B.1 aminoacylation ribozyme variant]",
    "reported.endpoint": "self-aminoacylation",
    "value.measured": 6.12
  }
]

###

- Test system: biotinyl-Phe-oxazolone
- experiment: self-aminoacylation, catalytic enhancement (BFO) (fold over background); higher = more active; k-Seq, kA / k0A0; sequences stand for … in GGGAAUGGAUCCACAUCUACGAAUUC…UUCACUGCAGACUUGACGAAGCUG
This sample holds only a part of the variants without activity.

[
  {
    "polymer.sequence": "AUUCAUCUAGGUCAUCGGGGG [Fam2.2 aminoacylation ribozyme variant]",
    "self-aminoacylation": 5.32
  },
  {
    "polymer.sequence": "CCACACUACAAGCAAUCUGUC [Fam1B.1 aminoacylation ribozyme variant]",
    "self-aminoacylation": 0.747
  },
  {
    "polymer.sequence": "GUUACCCUGGUCACCGAGUGA [Fam2.1 aminoacylation ribozyme variant]",
    "self-aminoacylation": 79.2
  },
  {
    "polymer.sequence": "AUUCACCUAGAUCAGCGGGUG [Fam2.2 aminoacylation ribozyme variant]",
    "self-aminoacylation": 11.7
  },
  {
    "polymer.sequence": "AUACACCUAGGUCAUCGGAUG [Fam2.2 aminoacylation ribozyme variant]",
    "self-aminoacylation": 0.387
  },
  {
    "polymer.sequence": "AAGCUUGCUAAUAGUCGCAAU [Fam3.1 aminoacylation ribozyme variant]",
    "self-aminoacylation": 2.59
  },
  {
    "polymer.sequence": "CCACACAUCAAGCAACCGGUC [Fam1B.1 aminoacylation ribozyme variant]",
    "self-aminoacylation": 1.29
  },
  {
    "polymer.sequence": "CCACACUUCAUGCAAUCGAUC [Fam1B.1 aminoacylation ribozyme variant]",
    "self-aminoacylation": 0.923
  },
  {
    "polymer.sequence": "AUUCACCUAGGUCCACGGGUG [Fam2.2 aminoacylation ribozyme variant]",
    "self-aminoacylation": 48.5
  },
  {
    "polymer.sequence": "AUUCGCGUAGGUCAUCGGGUG [Fam2.2 aminoacylation ribozyme variant]",
    "self-aminoacylation": 57.5
  },
  {
    "polymer.sequence": "AUUCACCUGGGUCAUCGGGUG [Fam2.2 aminoacylation ribozyme variant]",
    "self-aminoacylation": 67.8
  },
  {
    "polymer.sequence": "AUCACCCUGGUCAUCGAGGGA [Fam2.1 aminoacylation ribozyme variant]",
    "self-aminoacylation": 12.5
  }
]

###

- System: biotinyl-Leu-oxazolone
- experiment: self-aminoacylation, catalytic enhancement (BLO) (fold over background); higher = more active; k-Seq, kA / k0A0; sequences stand for … in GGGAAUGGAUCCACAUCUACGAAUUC…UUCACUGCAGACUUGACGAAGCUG
Variants at the floor of the assay were thinned out.
reported.endpoint: self-aminoacylation

[
  {
    "polymer.sequence": "UUACUUCAAACAAUCGGUCCG [Fam1A.1 aminoacylation ribozyme variant]",
    "reported.endpoint": "self-aminoacylation",
    "value.measured": 0.937
  },
  {
    "polymer.sequence": "GUUGCCCUGGUCAUCGAGUGA [Fam2.1 aminoacylation ribozyme variant]",
    "reported.endpoint": "self-aminoacylation",
    "value.measured": 57.5
  },
  {
    "polymer.sequence": "AUUACCCUGGUAAGCGAGUGA [Fam2.1 aminoacylation ribozyme variant]",
    "reported.endpoint": "self-aminoacylation",
    "value.measured": 4.55
  },
  {
    "polymer.sequence": "CCACACUUCAGGCAGUCGGUC [Fam1B.1 aminoacylation ribozyme variant]",
    "reported.endpoint": "self-aminoacylation",
    "value.measured": 1.62
  }
]

###

- Test system: biotinyl-Val-oxazolone
- experiment: self-aminoacylation, catalytic enhancement (BVO) (fold over background); higher = more active; k-Seq, kA / k0A0; sequences stand for … in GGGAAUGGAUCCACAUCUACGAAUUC…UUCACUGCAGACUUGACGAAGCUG
This sample holds only a part of the variants without activity.
Outcome: y for self-aminoacylation of at least 2; n for anything lower.

[
  {
    "polymer.sequence": "CUACUUCGAACAAACGGUCUG [Fam1A.1 aminoacylation ribozyme variant]",
    "label.class": "n"
  },
  {
    "polymer.sequence": "AUGACCCUGGUCACCGAGUGA [Fam2.1 aminoacylation ribozyme variant]",
    "label.class": "y"
  },
  {
    "polymer.sequence": "AUUACCUUGAUCAUCGAGUGA [Fam2.1 aminoacylation ribozyme variant]",
    "label.class": "y"
  },
  {
    "polymer.sequence": "AUUAGCCUGGGCAUCGAGUGA [Fam2.1 aminoacylation ribozyme variant]",
    "label.class": "y"
  },
  {
    "polymer.sequence": "AACGUUGCUAAUAGUCGCAAG [Fam3.1 aminoacylation ribozyme variant]",
    "label.class": "n"
  },
  {
    "polymer.sequence": "CCACACUUCACGCAAUUGGUC [Fam1B.1 aminoacylation ribozyme variant]",
    "label.class": "n"
  },
  {
    "polymer.sequence": "AUUCGCCUAGGUCAUCGGCUG [Fam2.2 aminoacylation ribozyme variant]",
    "label.class": "y"
  },
  {
    "polymer.sequence": "AUUCACCUAGGGCAUCGGGUG [Fam2.2 aminoacylation ribozyme variant]",
    "label.class": "y"
  },
  {
    "polymer.sequence": "CCACACUUCAAGCUAUCGGUA [Fam1B.1 aminoacylation ribozyme variant]",
    "label.class": "n"
  },
  {
    "polymer.sequence": "AUUACCCUGGUCAUCGCAUGA [Fam2.1 aminoacylation ribozyme variant]",
    "label.class": "n"
  },
  {
    "polymer.sequence": "AUUCACCCAGGUCAUCGUGUG [Fam2.2 aminoacylation ribozyme variant]",
    "label.class": "n"
  },
  {
    "polymer.sequence": "CCACGCUUCAAGAAAUCGGUC [Fam1B.1 aminoacylation ribozyme variant]",
    "label.class": "n"
  },
  {
    "polymer.sequence": "AUUACCCUGGGAAUCGAGUGA [Fam2.1 aminoacylation ribozyme variant]",
    "label.class": "y"
  },
  {
    "polymer.sequence": "CUACUACAAACUAUCGGUCUG [Fam1A.1 aminoacylation ribozyme variant]",
    "label.class": "n"
  },
  {
    "polymer.sequence": "AGGUUUGCUAAUAGUCGUAAG [Fam3.1 aminoacylation ribozyme variant]",
    "label.class": "n"
  },
  {
    "polymer.sequence": "CUCCACUUCAAGCAAUCGGUC [Fam1B.1 aminoacylation ribozyme variant]",
    "label.class": "n"
  },
  {
    "polymer.sequence": "CUUCACCUAGCUCAUCGGGUG [Fam2.2 aminoacylation ribozyme variant]",
    "label.class": "y"
  },
  {
    "polymer.sequence": "CUACUUAAAACAAUCGGUCUU [Fam1A.1 aminoacylation ribozyme variant]",
    "label.class": "n"
  },
  {
    "polymer.sequence": "AUUACCCUGGUCAUCAACUGA [Fam2.1 aminoacylation ribozyme variant]",
    "label.class": "n"
  },
  {
    "polymer.sequence": "CGACACUUCAAGCAAUCGGUA [Fam1B.1 aminoacylation ribozyme variant]",
    "label.class": "n"
  },
  {
    "polymer.sequence": "ACACACUUCAAGCAAGCGGUC [Fam1B.1 aminoacylation ribozyme variant]",
    "label.class": "n"
  },
  {
    "polymer.sequence": "CUACUUCAAACCAUCGGCCUG [Fam1A.1 aminoacylation ribozyme variant]",
    "label.class": "n"
  },
  {
    "polymer.sequence": "GUACUUCAAAGAAUCGGUCUG [Fam1A.1 aminoacylation ribozyme variant]",
    "label.class": "n"
  },
  {
    "polymer.sequence": "AAGUAUGCUAUUAGUCGCAAG [Fam3.1 aminoacylation ribozyme variant]",
    "label.class": "n"
  },
  {
    "polymer.sequence": "CCACACUUCAGGCAAUCGGGC [Fam1B.1 aminoacylation ribozyme variant]",
    "label.class": "y"
  },
  {
    "polymer.sequence": "AUUCACUUGGGUCAUCGGGUG [Fam2.2 aminoacylation ribozyme variant]",
    "label.class": "y"
  }
]
